target-or-system: glucagon receptor (human, UniProt P47871 26-477)
Sequence (P47871 26-477): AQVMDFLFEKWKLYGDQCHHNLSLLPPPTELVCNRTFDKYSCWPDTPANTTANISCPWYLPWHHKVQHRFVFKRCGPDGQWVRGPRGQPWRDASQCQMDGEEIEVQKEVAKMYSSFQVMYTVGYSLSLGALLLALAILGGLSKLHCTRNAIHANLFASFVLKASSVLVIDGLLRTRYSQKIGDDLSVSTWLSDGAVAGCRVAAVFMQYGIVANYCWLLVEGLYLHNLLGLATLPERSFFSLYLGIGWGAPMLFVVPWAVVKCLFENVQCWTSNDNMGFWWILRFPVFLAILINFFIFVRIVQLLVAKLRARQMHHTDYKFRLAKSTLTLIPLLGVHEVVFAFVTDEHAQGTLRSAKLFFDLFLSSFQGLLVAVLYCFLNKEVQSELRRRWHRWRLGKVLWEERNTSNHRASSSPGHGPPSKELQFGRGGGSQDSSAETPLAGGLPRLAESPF
method-description: cell-based or functional assay
No end group written: not given here.
measurement-kind: % Relative Activity vs native glucagon

INSERT INTO assay_data (binder, reported_value) VALUES
  ('HSQGTFTSDKSKYLDEQAAKEFICWLLDT (also: DPP-IV-resistant residue at position 1 or 2, not given here) [Glucagon Analog 53]', '411%'),
  ('HSQGTFTSDKSKYLDEQAAKEFICWLLDTG (not fully specified) [Glucagon Analog 55]', '7%'),
  ('HSQGTFTSDKSKYLDEQAAKEFICWLLDTGG (not fully specified) [Glucagon Analog 56]', '272%'),
  ('HSQGTFTSDKSKYLDEQAAKEFICWLLDT (also: DPP-IV-resistant residue at position 1 or 2, not given here) [Glucagon Analog 57]', '1%');
